Here the recorded normalised cell viability is given for each entry.
system: NCI-H1944; test: normalised cell viability (NPI; 0 = phenylarsine oxide control, 1 = DMSO control) (fraction of DMSO control); higher = more viable cells (less compound toxicity); conditions: glucocorticoid arm: hydrocortisone 2.75 uM pre-treated 2 days and continued; compound 5 µM; 6 days
Structures can show the parent of a compound that is named as a salt. Over roughly 1,900 compounds, “normalised cell viability (NPI; 0 = phenylarsine oxide control, 1 = DMSO control)” has its median near 1; the lowest 2% begin near 0.039. The sample as a whole holds a higher share of the lowest values than the screen did.
// print number alone

Observe how each entry below is paired with its result.
| Compound | Reported Result |
| --- | --- |
| COc1cc(CC(C)N)c(OC)cc1I (racemic) [(±)-DOI hydrochloride] | 1.02 |
| CCCn1c(C)c(C(=O)c2cccc3ccccc23)c2ccccc21 | 1.06 |
| NC(CP(=O)(O)O)C(=O)O (racemic) [(±)-2-Amino-3-phosphonopropionic acid] | 1 |

**Q:** Find the measured normalised cell viability of OC[C@H]1O[C@@H](n2cnc3cc(Cl)c(Cl)cc32)[C@H](O)[C@@H]1O [5,6-Dichlorobenzimidazole riboside] and report it.
**A:** 1.03

----------
test system: NCI-H1944; test: normalised cell viability (NPI; 0 = phenylarsine oxide control, 1 = DMSO control) (fraction of DMSO control); NCI-H1944 is a non-small cell lung cancer line; higher = more viable cells (less compound toxicity); settings: glucocorticoid arm: vehicle; compound 5 µM; 6 days;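 further: CTB read-out in 384-well plates, triplicate wells, NPI normalised per plate against 1 µM phenylarsine oxide (0) and 0.1% DMSO (1) controls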
Where a name gives a salt, the structure may show the parent alone. Over roughly 1,900 compounds, “normalised cell viability (NPI; 0 = phenylarsine oxide control, 1 = DMSO control)” has its median near 1; the lowest 2% begin near 0.039. The full list was thinned out, with the lowest values kept by preference.
Measurement Name: normalised cell viability
// print number alone

Observe how each entry below is paired with its result.
| Molecule | Measurement Name | Reported Result |
| --- | --- | --- |
| C[C@@H]1O[C@H](C[N+](C)(C)C)C[C@H]1O (racemic) [(±)-Muscarine chloride] | normalised cell viability | 1 |
| CCCN1CC[C@@H]2c3cc(O)ccc3CC[C@@H]21 (racemic) [cis(+/-)-8-OH-PBZI hydrobromide] | normalised cell viability | 1.01 |
| Cc1c(N)nc([C@H](CC(N)=O)NC[C@H](N)C(N)=O)nc1C(=O)N[C@H](C(=O)N[C@H](C)[C@@H](O)[C@H](C)C(=O)N[C@H](C(=O)NCCc1nc(-c2nc(C(=O)NCCC[S+](C)C)cs2)cs1)[C@@H](C)O)[C@@H](OC1OC(CO)C(O)C(O)C1OC1OC(CO)C(O)C(OC(N)=O)C1O)c1cnc[nH]1 (some centres not stated) [Bleomycin sulfate] | normalised cell viability | 0.0339 |
| COc1ccc2c3c1O[C@H]1C(=O)CC[C@@]4(O)C(C2)N(CC2CC2)CCC314 (some centres not stated) [3-Methoxynaltrexone hydrochloride] | normalised cell viability | 0.998 |
| CCc1c(C(=O)OC)ncc2[nH]c3cc(OC)c(OC)cc3c12 [Methyl 6,7-dimethoxy-4-ethyl-beta-carboline-3-carboxylate] | normalised cell viability | 1 |
| CCC1(c2ccc(N)cc2)CCC(=O)NC1=O (racemic) [(±)-p-Aminoglutethimide] | normalised cell viability | 1 |

# context switch: different molecule, same normalised cell viability
**Q:** Find the measured normalised cell viability of C=CCc1ccccc1OCC(O)CNC1(C)CCC(C(C)(C)NC(=O)CBr)CC1 (configuration not stated) [Bromoacetyl alprenolol menthane] and report it.
**A:** -0.000518
